B1: DYRK1B (parent)
chain: RFQDLVLRMLEYEPAARISPLGAL

Variants of: B1
Assay overview: protein stability index of a GFP-peptide fusion (GPS, HEK-293T) (PSI 1-6); higher = more stable;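 note: lentivirally expressed fusions sorted by FACS into six bins by GFP to DsRed ratio, PSI derived from sequencing read proportions per bin multiplied by bin number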
Recorded conditions: c terminus: a fixed tail appended
The recorded protein stability index of each item maps onto one of these classes: low range (below 2), mid range (2 to below 3), high range (3 or more)

| Seq text | Assigned class |
| --- | --- |
| RFQDLKLRMLEYEPAARISPLGAL [V6K] | low range |

Now consider a different variant.
Lab log: RFQDLVNRMLEYEPAARISPLGAL [L7N] — assign protein stability index category
low range

Reference for the values: the supplement of paper PMC10567573
